- System: Hepatitis B Virus (HBV)
- assay_info: HBV replication in 2.2.15 cell culture, 9-day assay
- Type: cell-based
- assay_setup: Hepatitis B virus, read-out: Extracellular Virion DNA EC50
reported_property: EC50 (nM)
Field format: number, assumed nM, no unit text.

The compound listed as Nc1ccn([C@@H]2CS[C@H](CO)O2)c(=O)n1 [Lamivudine, reference compound] shows EC50 equal to 58

---

- Tested on: fusobacteria
- assay_info: CLSI agar dilution MIC, anaerobic clinical isolates
- Type: cell-based
- assay_setup: Fusobacteria (28 isolates), 48 h
reported_property: MIC90

Some solved cases for reference:
[
  {
    "compound": "CC(=O)Oc1c(C)cccc1C(=O)Nc1ncc(Br)s1",
    "MIC90": "> 32 µg/mL"
  },
  {
    "compound": "O=C(Nc1ncc([N+](=O)[O-])s1)c1ccccc1O [Tizoxanide]",
    "MIC90": "2 µg/mL"
  },
  {
    "compound": "CCC[C@@H]1C[C@@H](C(=O)N[C@@H]([C@H]2O[C@H](SC)[C@H](O)[C@@H](O)[C@H]2O)[C@H](C)Cl)N(C)C1",
    "MIC90": "0.125 µg/mL"
  },
  {
    "compound": "Cc1cccc(C(=O)Nc2ncc(Br)s2)c1O",
    "MIC90": "> 32 µg/mL"
  }
]

// next item, MIC90 requested
With fusobacteria as the test system, "Cc1ncc([N+](=O)[O-])n1CCO" showed MIC90 of 0.25 µg/mL

Reference for the values: patent US7285567B2
